Values of pKi for Coagulation factor X (Homo sapiens), collected from a number of published sources:
pKi: −log10 of the molar value.

[
  {
    "Compound": "CCOc1cc(C(Nc2ccc3c(N)nccc3c2)C(=O)NS(=O)(=O)c2cccc(S(N)(=O)=O)c2)ccc1OC(C)C (centres undefined)",
    "pKi": 5.23
  },
  {
    "Compound": "CC(C)N1CCC(NC(=O)c2ccn(CC(=O)Nc3ccc(Cl)cc3)n2)CC1",
    "pKi": 6.69
  },
  {
    "Compound": "CN(Cc1csc(C(=O)Nc2ccc(Cl)cc2C(=O)Nc2ccc(Cl)cc2)c1Cl)CC(O)CO (centres undefined)",
    "pKi": 8.85
  },
  {
    "Compound": "N=C(N)c1ccc2scc(C(Cc3ccccc3)C(=O)Nc3ccc4ncsc4c3)c2c1 (single isomer, unassigned)",
    "pKi": 5.24
  }
]
